# experimental_system: glucocorticoid receptors (Homo sapiens)
# Sequence (P04150 1-777): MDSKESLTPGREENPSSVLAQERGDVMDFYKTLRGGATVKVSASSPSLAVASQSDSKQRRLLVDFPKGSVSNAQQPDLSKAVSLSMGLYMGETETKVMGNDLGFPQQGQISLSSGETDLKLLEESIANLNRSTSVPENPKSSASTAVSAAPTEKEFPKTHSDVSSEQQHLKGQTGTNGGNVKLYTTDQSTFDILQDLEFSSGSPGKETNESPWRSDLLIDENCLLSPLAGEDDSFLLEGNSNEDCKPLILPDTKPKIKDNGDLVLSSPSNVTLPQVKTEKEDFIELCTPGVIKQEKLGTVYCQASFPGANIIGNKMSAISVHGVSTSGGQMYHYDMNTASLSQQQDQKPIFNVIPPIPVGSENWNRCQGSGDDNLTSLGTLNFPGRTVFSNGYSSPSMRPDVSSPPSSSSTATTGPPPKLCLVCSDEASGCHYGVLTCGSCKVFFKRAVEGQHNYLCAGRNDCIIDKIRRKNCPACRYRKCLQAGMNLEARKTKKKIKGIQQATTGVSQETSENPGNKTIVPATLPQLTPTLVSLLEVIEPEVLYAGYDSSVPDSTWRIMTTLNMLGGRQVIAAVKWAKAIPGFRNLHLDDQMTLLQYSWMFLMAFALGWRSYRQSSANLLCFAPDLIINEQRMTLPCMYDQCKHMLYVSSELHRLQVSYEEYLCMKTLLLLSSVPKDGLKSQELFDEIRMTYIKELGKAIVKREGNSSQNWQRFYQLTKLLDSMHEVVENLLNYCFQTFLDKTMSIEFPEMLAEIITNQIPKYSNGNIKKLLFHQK
# procedure_details: GR functional assay using SW1353/MMTV-5 cells (dexamethasone-induced luciferase)
# Format: cell-based
# Parameters: contains endogenous glucocorticoid receptors; endogenous in cells; host or cells: SW1353/MMTV-5 (human chondrosarcoma, stably carrying the pMAMneo-Luc reporter)
# measurement_conditions: read-out: GR Functional
property_label: Ki

Here is how some molecules turned out for Ki.
CC(C)n1ncc2c1C=C1CCN(S(=O)(=O)c3ccc(C(C)(C)C)cc3)C[C@@]1(CN(C)C)C2    > 100 nM
COCCOC[C@]12Cc3cnn(C(C)C)c3C=C1CCN(S(=O)(=O)c1ccc(C(C)(C)C)cc1)C2    10 to 100 nM
CCCCS(=O)(=O)N1CCC2=Cc3c(cnn3-c3ccc(F)cc3)C[C@]2(CN2CCOCC2)C1    > 100 nM

Now for another entry.
input: Entry under review: `COCCOC[C@]12Cc3cnn(C)c3C=C1CCN(S(=O)(=O)c1ccc(C(C)(C)C)cc1)C2` . Reported Ki?
output: > 100 nM

###

# experimental_system: glucocorticoid receptors (Homo sapiens)
# procedure_details: GR functional assay using SW1353/MMTV-5 cells (dexamethasone-induced luciferase)
# Type: cell-based
# Design: contains endogenous glucocorticoid receptors; endogenous in cells; host or cells: SW1353/MMTV-5 (human chondrosarcoma, stably carrying the pMAMneo-Luc reporter)
# measurement_conditions: SW1353/MMTV-5 cells, antagonism of 50 nM dexamethasone, luciferase; read-out: GR Functional
pKi: −log10 of the molar value.
property_label: pKi

Here is how some compounds turned out for pKi.
CC(C)(C)c1ccc(S(=O)(=O)N2CCC3=Cc4c(cnn4-c4ccc(F)cc4)CC3(Cc3ccccc3)C2)cc1 (stereo not shown) [drawing 249]    7.00 to 8.00
O=S(=O)(c1ccc(N2CCOCC2)cc1)N1CCC2=Cc3[nH]ncc3CC2(Cc2ccccc2)C1 (stereo not shown) [drawing 230]    < 7.00
CC(C)(C)c1ccc(S(=O)(=O)N2CCC3=Cc4c(cnn4Cc4ccccc4)CC3(Cc3ccccc3)C2)cc1 (stereo not shown) [drawing 253]    < 7.00
CN1CCOc2cc(S(=O)(=O)N3CCC4=Cc5[nH]ncc5CC4(Cc4ccccc4)C3)ccc21 (stereo not shown) [drawing 231]    < 7.00
CC(C)(C)c1ccc(S(=O)(=O)N2CCC3=Cc4c(cnn4-c4ccc(C#N)cc4)CC3(Cc3ccccc3)C2)cc1 (stereo not shown) [drawing 255]    7.00 to 8.00
COc1ccc(CC23Cc4cnn(-c5ccc(F)cc5)c4C=C2CCN(Cc2ccccc2)C3)cc1 (stereo not shown) [drawing 260]    < 7.00

Now for another entry.
input: Entry under review: Cn1cc2c(n1)C=C1CCN(S(=O)(=O)c3ccc(C(C)(C)C)cc3)CC1(Cc1ccccc1)C2 (stereo not shown) [drawing 248] . Reported pKi?
output: < 7.00
